Where do the numbers come from? From ChEMBL document CHEMBL1153120.

System: Liver microsomes
protocol_text: Intrinsic clearance in rat liver microsomes measured […]
Assay type: ADME, Microsome
Give measured clearance for each item. Keep answers brief.

Qu. Given the compound "FC(F)(F)c1cc(Nc2ccccc2)nc(NCc2ccncc2)n1" , what is its reported clearance?
Ans. > 119 µL/min/mg

Qu. Field request: clearance | item: "Cc1cc(Nc2ccccc2)nc(NCc2ccccn2)n1"
Ans. 114 µL/min/mg

Qu. # lookup: clearance of "FC(F)(F)c1cc(Nc2ccccc2)nc(NCc2ccccn2)n1"
Ans. > 119 µL/min/mg

Qu. Entry "Cc1cc(Nc2ccccc2)nc(NCc2ccc3c(c2)OCO3)n1" has what clearance?
Ans. > 119 µL/min/mg

Lab note: next compound to report on.
Qu. So what does the record say about clearance for "Cc1cc(Nc2ccccc2)nc(NCc2ccccc2)n1" ?
Ans. > 119 µL/min/mg
